target: Cytochrome P450 2D6 (Homo sapiens)
Sequence (P10635 whole entry): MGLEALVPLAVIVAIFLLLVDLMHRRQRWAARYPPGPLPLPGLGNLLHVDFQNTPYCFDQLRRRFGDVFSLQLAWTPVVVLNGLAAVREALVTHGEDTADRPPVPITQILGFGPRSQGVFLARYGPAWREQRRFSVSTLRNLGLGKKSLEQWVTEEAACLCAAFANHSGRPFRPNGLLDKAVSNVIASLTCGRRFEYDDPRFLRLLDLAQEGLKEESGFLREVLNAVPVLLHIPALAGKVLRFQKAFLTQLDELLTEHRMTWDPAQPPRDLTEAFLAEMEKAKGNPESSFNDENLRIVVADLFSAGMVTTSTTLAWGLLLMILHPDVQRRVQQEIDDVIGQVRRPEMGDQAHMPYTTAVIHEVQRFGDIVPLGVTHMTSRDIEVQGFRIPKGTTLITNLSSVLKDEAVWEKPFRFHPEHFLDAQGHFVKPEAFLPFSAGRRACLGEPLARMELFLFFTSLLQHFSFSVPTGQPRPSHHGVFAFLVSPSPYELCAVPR
quantity: IC50 (nM)
Write it as a number; the unit nM goes unstated.

Recorded result, `COc1cc2c(cc1O)[C@H]1C[C@@](O)(c3ccc(OC(F)(F)F)cc3)CCN1CC2` , IC50: 840

----------
molecular target: D(2) dopamine receptor (Homo sapiens); test: Displacement of [3H]N-methylspiperone from dopamine D2 receptor (unknown origin) expressed in CHO cell membranes after 60 mins
quantity: Ki (nM)
Write it as a number; the unit nM goes unstated.

[[record]]
mol = "COc1cc2c(cc1O)[C@H]1C[C@@](O)(c3ccc(OC(F)(F)F)cc3)CCN1CC2"
quantity = "Ki"
observed_result = 4


Recorded result, `Cc1cc2c(cc1O)[C@H]1C[C@](O)(c3ccc(Cl)cc3)CCN1CC2` , Ki: 132

Recorded result, `Cc1cc2c(cc1O)[C@H]1C[C@@](O)(c3ccc(Cl)cc3)CCN1CC2` , Ki: 12.3

----------
molecular target: D(1A) dopamine receptor (Homo sapiens); test: Displacement of [3H]SCH23390 from dopamine D1 receptor (unknown origin) expressed in CHO cell membranes after 60 mins
Sequence (P21728 whole entry): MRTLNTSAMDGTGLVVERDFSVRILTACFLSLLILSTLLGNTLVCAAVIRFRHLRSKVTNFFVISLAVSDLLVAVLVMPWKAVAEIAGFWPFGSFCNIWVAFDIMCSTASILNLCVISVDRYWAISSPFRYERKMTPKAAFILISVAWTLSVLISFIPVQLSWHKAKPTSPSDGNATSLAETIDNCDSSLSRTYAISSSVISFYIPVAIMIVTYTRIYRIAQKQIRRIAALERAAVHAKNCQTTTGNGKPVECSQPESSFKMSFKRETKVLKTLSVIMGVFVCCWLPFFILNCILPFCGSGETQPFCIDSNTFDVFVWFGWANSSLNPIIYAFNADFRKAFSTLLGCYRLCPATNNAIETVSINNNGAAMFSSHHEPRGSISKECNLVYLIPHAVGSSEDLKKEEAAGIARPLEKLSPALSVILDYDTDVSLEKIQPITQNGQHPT
Catalogue of compounds with associated Ki
Write it as a number; the unit nM goes unstated.

Field: example entries. Status: answers known.
[[record]]
mol = "COc1cc2c(cc1O)[C@H]1C[C@@](O)(c3ccc(OC(F)(F)F)cc3)CCN1CC2"
quantity = "Ki"
observed_result = 2

[[record]]
mol = "COc1ccc2c(c1)CCN1CC[C@@](O)(c3ccc(Cl)cc3)C[C@H]21"
quantity = "Ki"
observed_result = 3340

[[record]]
mol = "COc1cc2c(cc1O)[C@H]1C[C@](O)(c3ccc(Cl)cc3)CCN1CC2"
quantity = "Ki"
observed_result = 244

[[record]]
mol = "COc1ccc2c(c1)CCN1CC[C@](O)(c3ccc(Cl)cc3)C[C@H]21"
quantity = "Ki"
observed_result = 252

[[record]]
mol = "Cc1cc2c(cc1O)[C@H]1C[C@@](O)(c3ccc(Cl)cc3)CCN1CC2"
quantity = "Ki"
observed_result = 5.5


Recorded result, `COc1cc2c(cc1O)[C@H]1C[C@@](O)(c3ccc(Cl)cc3)CCN1CC2` , Ki: 4

Recorded result, `Cc1cc2c(cc1O)[C@H]1C[C@](O)(c3ccc(Cl)cc3)CCN1CC2` , Ki: 45.9

----------
target: D(1A) dopamine receptor (Homo sapiens); experiment: Agonist activity at dopamine D1 receptor (unknown origin) transfected in CHO cell membranes assessed as increase in cAMP level after 8 mins by flash plate assay in presence of dopamine; type: functional, cell-based; conditions: read-out: EC50
quantity: pEC50
Remember, pEC50 is on a log scale: it is -log10 of the molar concentration.

[[record]]
mol = "COc1cc2c(cc1O)[C@H]1C[C@@](O)(c3ccc(Cl)cc3)CCN1CC2"
observed_result = 8.10

[[record]]
mol = "COc1cc2c(cc1O)[C@H]1C[C@@](O)(c3ccc(OC(F)(F)F)cc3)CCN1CC2"
observed_result = 8.30


Recorded result, `Cc1cc2c(cc1O)[C@H]1C[C@@](O)(c3ccc(Cl)cc3)CCN1CC2` , pEC50: 7.96

Recorded result, `Cc1cc2c(cc1O)[C@H]1C[C@](O)(c3ccc(Cl)cc3)CCN1CC2` , pEC50: 6.12

----------
target: D(2) dopamine receptor (Homo sapiens, UniProt P14416); assay: Displacement of [3H]N-methylspiperone from dopamine D2 receptor (unknown origin) expressed in CHO cell membranes after 60 mins
Sequence (P14416 whole entry): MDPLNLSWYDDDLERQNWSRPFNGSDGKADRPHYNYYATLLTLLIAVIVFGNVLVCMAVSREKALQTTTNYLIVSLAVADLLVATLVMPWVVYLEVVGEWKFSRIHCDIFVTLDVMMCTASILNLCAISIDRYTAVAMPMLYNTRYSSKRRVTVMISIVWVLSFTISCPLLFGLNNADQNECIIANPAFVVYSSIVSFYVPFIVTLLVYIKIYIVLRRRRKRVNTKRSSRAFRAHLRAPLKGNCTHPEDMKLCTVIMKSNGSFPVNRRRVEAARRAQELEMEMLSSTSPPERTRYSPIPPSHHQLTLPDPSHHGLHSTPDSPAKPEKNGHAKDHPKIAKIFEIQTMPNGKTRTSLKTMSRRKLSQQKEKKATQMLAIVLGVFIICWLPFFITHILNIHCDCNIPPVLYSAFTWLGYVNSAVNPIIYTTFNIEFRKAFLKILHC
Catalogue of molecules with associated Ki

[[record]]
mol = "COc1cc2c(cc1O)[C@H]1C[C@](O)(c3ccc(Cl)cc3)CCN1CC2"
quantity = "Ki"
observed_result = "101 nM"


Recorded result, `COc1ccc2c(c1)CCN1CC[C@@](O)(c3ccc(Cl)cc3)C[C@H]21` , Ki: > 10000 nM

Recorded result, `COc1cc2c(cc1O)[C@H]1C[C@@](O)(c3ccc(Cl)cc3)CCN1CC2` , Ki: 14.8 nM

Recorded result, `COc1ccc2c(c1)CCN1CC[C@](O)(c3ccc(Cl)cc3)C[C@H]21` , Ki: 195 nM
